# Species on record: Homo sapiens
# assay.remarks: Inhibition of calcium ionophore (A-23187) stimulated leukotriene B4 (LTB4) formation in human neutrophils at 390 nM
# Assay type: functional
pIC50: −log10 of the molar value.
attribute.measured: pIC50

INSERT INTO assay_data (molecule, data_value) VALUES
  ('O=C(O)C1CCC(c2ccc(OCc3ccc4ccccc4n3)cc2)(c2ccc(OCc3ccc4ccccc4n3)cc2)CC1', 7.22),
  ('Cn1c(COc2ccc(C(C)(CCC(=O)O)c3ccc(OCc4ccc5ccccc5n4)cc3)cc2)nc2ccccc21 (centres undefined)', 7.10),
  ('O=C([O-])C=C(c1ccc(OCc2ccc3ccccc3n2)cc1)c1ccc(OCc2ccc3ccccc3n2)cc1.[Na+]', 7.40),
  ('CC(C(=O)[O-])(c1ccc(OCc2ccc3ccccc3n2)cc1)c1ccc(OCc2ccc3ccccc3n2)cc1.[Na+]', 7.43);
